# maps each entry to its EC50
# TARGET_UNDER_TEST: T1, human neonatal Fc receptor (hFcRn) (human, UniProt P55899 24-290; P61769 21-119)
# T1 construct: Biotinylated in the ELISA, Octet and yeast assays; also called human FcRn; huFcRn
# ASSAY_TEXT: SPR competition pH 5.5
The number alone won't do; follow it with the unit.

Known EC50 results, listed for orientation:
BINDER	OBSERVED_MEASUREMENT
variant Fc-fragment Fc-5-51 (other, soluble elsewhere) EPKSCDKTHTCPPCPAPELLGGPSVFLFPPKPKDTLMISRTPEVTCVVVDVSHEDPEVKFNWYVDGVEVHNAKTKPREEQYNSTYRVVSVLTVLHQDWLNGKEYKCKVSNKALPAPIEKTISKAKGQPREPQVYTLPPSRDELTKNQVSLTCLVKGFYPSDIAVEWESNGGCHLPFAVCGGGQPENNYKTTPPVLDSDGSFFLYSKLTVDKSRWQQGNVFSCSVMHEALHNHYTQKSLSLSPGK	16 nM
variant Fc-fragment Fc-5-95 (other, library L5 isolate) EPKSCDKTHTCPPCPAPELLGGPSVFLFPPKPKDTLMISRTPEVTCVVVDVSHEDPEVKFNWYVDGVEVHNAKTKPREEQYNSTYRVVSVLTVLHQDWLNGKEYKCKVSNKALPAPIEKTISKAKGQPREPQVYTLPPSRDELTKNQVSLTCLVKGFYPSDIAVEWESNGGCDRPVWFCGGGQPENNYKTTPPVLDSDGSFFLYSKLTVDKSRWQQGNVFSCSVMHEALHNHYTQKSLSLSPGK	42 nM

Shift focus to the following entry.
Quick note, EC50 for variant Fc-fragment Fc-5-70 (other, library L5 isolate) EPKSCDKTHTCPPCPAPELLGGPSVFLFPPKPKDTLMISRTPEVTCVVVDVSHEDPEVKFNWYVDGVEVHNAKTKPREEQYNSTYRVVSVLTVLHQDWLNGKEYKCKVSNKALPAPIEKTISKAKGQPREPQVYTLPPSRDELTKNQVSLTCLVKGFYPSDIAVEWESNGGCMVPFSMCGGGQPENNYKTTPPVLDSDGSFFLYSKLTVDKSRWQQGNVFSCSVMHEALHNHYTQKSLSLSPGK landed at 26 nM

Data provenance is patent US20140356358A1.
